Test system: KM12 colon
test: NCI tumour cell line growth inhibition, 48 h
GI50: recorded values
readout type: GI50

# molecule, target desc, readout type, measurement
data = [
    ("COc1ccc(CN2c3ccccc3Sc3ccccc32)c(F)c1", "KM12 colon", "GI50", "43.2 nM"),
    ("COc1cc(NC(C)CCCNC2CN3CCC2CC3)c2ncccc2c1 (centres undefined)", "KM12 colon", "GI50", "14600 nM"),
    ("Cc1c(C(N)=O)sc2c1C(=O)N(Cc1ccccc1)C1=NN=C(c3ccc(Cl)cc3)CN12", "KM12 colon", "GI50", "4070 nM"),
    ("COc1ccc(C(=O)OC2C(OC3C(O)COC(O[C@H]4C[C@H]5[C@@H]6CC=C7C[C@@H](O)CC[C@]7(C)[C@H]6CC[C@]5(C)[C@H]4[C@H](C)C(=O)CCC(C)C)C3OC(N)=O)OCC(O)C2O)cc1 (some centres undefined)", "KM12 colon", "GI50", "175 nM"),
]
